target: CaMK1d (Homo sapiens (Human), UniProt Q8IU85); test: KiNativ assay; type: binding; settings: H929 live cell, read-out: inhibition (10 μM)
Sequence (Q8IU85 whole entry): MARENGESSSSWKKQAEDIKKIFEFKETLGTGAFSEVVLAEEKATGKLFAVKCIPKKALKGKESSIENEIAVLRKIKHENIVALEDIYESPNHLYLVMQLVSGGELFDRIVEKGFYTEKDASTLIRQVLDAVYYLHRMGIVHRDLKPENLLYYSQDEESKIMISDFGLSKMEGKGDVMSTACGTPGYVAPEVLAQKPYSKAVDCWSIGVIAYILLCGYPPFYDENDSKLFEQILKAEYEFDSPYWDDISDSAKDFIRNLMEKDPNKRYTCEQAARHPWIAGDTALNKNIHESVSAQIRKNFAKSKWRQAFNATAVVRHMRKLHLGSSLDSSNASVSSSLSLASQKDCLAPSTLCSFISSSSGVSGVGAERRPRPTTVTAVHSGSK
Would you please tag the item rule met when its inhibition at 10 µM is 10% or above, and rule not met when it is below?

>>> class_assignment("CN(C1CC1)S(=O)(=O)c1ccc(-c2cnc(N)c(-c3ccc4c(c3)CCNC4=O)c2)c(F)c1 [Compound I-28]")
"rule met"
>>> class_assignment("Nc1ncc(-c2ccc(NS(=O)(=O)C3CC3)cc2OC2CCCCC2)cc1-c1ccc2c(c1)CCNC2=O [Compound I-65]")
"rule not met"
>>> class_assignment("Nc1ncc(-c2ccc(NS(=O)(=O)C3CC3)cc2F)cc1-c1ccc2c(c1)CCNC2=O [Compound I-51]")
"rule not met"
>>> class_assignment("Nc1ncc(-c2cccc3ncsc23)cc1-c1ccc2c(c1)CCNC2=O [Compound I-13]")
"rule met"

# input Given Nc1ncc(-c2cccc([N+](=O)[O-])c2F)cc1-c1ccc2c(c1)CCNC2=O [Compound I-9] , state whether its inhibition at 10 µM is at least 10%.
# output rule not met

# input Given COc1cc(NS(=O)(=O)C2CC2)ccc1-c1cnc(N)c(-c2ccc3c(c2)CCNC3=O)c1 [Compound I-50] , state whether its inhibition at 10 µM is at least 10%.
# output rule met

These entries and their values trace back to patent US10710978B2.
